measured_on: T1, merlin FERM domain (22-312), GST tag cleaved (human, UniProt P35240 22-312)
T1 sequence: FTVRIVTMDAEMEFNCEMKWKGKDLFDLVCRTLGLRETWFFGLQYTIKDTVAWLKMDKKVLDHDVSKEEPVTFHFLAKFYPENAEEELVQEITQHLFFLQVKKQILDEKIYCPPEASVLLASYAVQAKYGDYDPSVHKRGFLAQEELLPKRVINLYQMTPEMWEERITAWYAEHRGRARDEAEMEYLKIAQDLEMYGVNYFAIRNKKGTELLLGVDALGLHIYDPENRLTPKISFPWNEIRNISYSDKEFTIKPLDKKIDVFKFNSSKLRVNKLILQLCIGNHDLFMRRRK
experimental_protocol: fluorescence polarisation
Where no end group is shown, it is not given here.
metric: Kd

Input: Look up Kd for this binder: AEPLPSLEYWPQKSDR (also: FITC label (position not given here)) [FITC-labeled FAM83G_(111-126)]
Output: 93 µM
